Quick reference for solvation free energy, 298 K among some molecules
- TEST: solvent given as SMILES
- CONDITION: in OCc1ccccc1
Please give a number only; it is taken to be in kcal/mol.

Known solvation free energy, 298 K results, listed for orientation:
CCCCCCCC :: -3.81
C[N+](=O)[O-] :: -4.5
CCO :: -4.79

Prompt: Could you share which solvation free energy, 298 K value was measured for CC=C(C)C ?
Completion: -2.44

Prompt: Could you share which solvation free energy, 298 K value was measured for CC(C)CCC(C)C ?
Completion: -3.33

Prompt: Could you share which solvation free energy, 298 K value was measured for CC(C)C(C)C(C)C ?
Completion: -3.52

Prompt: Could you share which solvation free energy, 298 K value was measured for CCCCCC ?
Completion: -2.66

Prompt: Could you share which solvation free energy, 298 K value was measured for CCCCC ?
Completion: -2.06

Prompt: Could you share which solvation free energy, 298 K value was measured for C=CC ?
Completion: -1.09

Prompt: Could you share which solvation free energy, 298 K value was measured for CCCCCCC ?
Completion: -3.24

Prompt: Could you share which solvation free energy, 298 K value was measured for CCCCCCCCC ?
Completion: -4.36
